Experiment: Assessment of solubility (McIlvaine buffers, 24 h shake, UPLC-UV)
Assay type: physicochemical
Conditions: pH 4.5, aqueous buffer, kinetic from dmso stock
readout.label: solubility at 24 h (µg/mL)

Solved entries:
{"compound": "COc1c(C(=O)O)cnn1-c1cccc(-c2cccc(C)c2OCc2ccc3c(c2C)CCN(C[C@H]2CCCO2)CC3)n1 [Compound 222]", "uom": "µg/mL", "reported.result": 71}
{"compound": "CCOc1c(C(=O)O)cnn1-c1cccc(-c2cccc(C)c2OCc2ccc3c(c2C)CCN([C@H]2CCOC2)C3)n1 [Compound 125]", "uom": "µg/mL", "reported.result": 76}
{"compound": "COc1c(C(=O)O)cnn1-c1cccc(-c2cccc(C)c2OCc2ccc3c(c2Cl)CCN(CC2(C)COC2)C3)n1 [Compound 19]", "uom": "µg/mL", "reported.result": 70}
{"compound": "CCOc1c(C(=O)O)cnn1-c1cccc(-c2cccc(C)c2OCc2ccc3c(c2C)CCN(CC2CCOCC2)C3)n1 [Compound 172]", "uom": "µg/mL", "reported.result": 87}

a: Cc1cccc(-c2cccc(-n3ncc(C(=O)O)c3OC(C)C)n2)c1OCc1ccc2c(c1C)CCN(C(C)C)C2 [Compound 43]
b: CCOc1c(C(=O)O)cnn1-c1cccc(-c2cccc(C)c2OCc2ccc3c(c2)CCN(C2CCOC(C)(C)C2)C3)n1 (centres unmarked) [Compound 66]
Hello, I am sorting some records. Could you say if a or b has the smaller solubility at 24 h value? State your choice using its label.
b

P: COc1c(C(=O)O)cnn1-c1cccc(-c2cccc(C)c2OCc2ccc3c(c2)CN(C2COC2)C3)n1 [Compound 85]
Q: COc1c(C(=O)O)cnn1-c1cccc(-c2cccc(C)c2OCc2ccc3c(c2)C(C)(C)CN(C2COC2)C3)n1 [Compound 10]
Hello, I am sorting some records. Could you say if P or Q has the smaller solubility at 24 h value? State your choice using its label.
Q
(Q: 50 µg/mL, P: 96 µg/mL)
